Recorded IC50, one value per entry.
Target: human chymase (Homo sapiens, UniProt P23946)
Sequence (P23946 22-247): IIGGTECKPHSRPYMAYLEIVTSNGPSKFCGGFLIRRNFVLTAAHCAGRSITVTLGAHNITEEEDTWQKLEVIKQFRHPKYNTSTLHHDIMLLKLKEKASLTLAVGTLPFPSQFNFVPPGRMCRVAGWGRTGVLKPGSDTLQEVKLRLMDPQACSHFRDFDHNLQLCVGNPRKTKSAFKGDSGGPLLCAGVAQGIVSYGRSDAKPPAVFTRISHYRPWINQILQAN
Assay: Determination of chymase-inhibiting activity (Test Example 1)
Conditions: activated human recombinant chymase; substrate succinyl-alanyl-histidyl-prolyl-phenylalanyl-para-nitroanilide; buffer pH 8.0; room temperature, 5 minutes; absorbance at 405 nm; read-out: 50% inhibitory concentrations (IC50) against the human chymase
MEASURED_ENDPOINT: IC50 (nM)

• CC(=O)NCCc1c(C(c2ccc(O)cc2)c2c(O)c3ccccc3n(C)c2=O)[nH]c2ccccc12 (stereo not drawn) = 41
• Cn1c(=O)c(C(c2ccccc2)c2[nH]c3ccccc3c2CCO)c(O)c2ccccc21 (stereo not drawn) = 14
• CC(=O)NCCc1c(C(c2ccccc2)c2c(O)c3ccccc3n(C)c2=O)[nH]c2ccccc12 (stereo not drawn) = 43
• CC(=O)NCCc1c(Cc2c(O)c3ccccc3n(C)c2=O)[nH]c2ccccc12 = 7300
• Cn1c(=O)c(Cc2[nH]c3ccccc3c2CCO)c(O)c2ccccc21 = 2100
• Cn1c(=O)c(C(c2ccc(O)cc2)c2[nH]c3ccccc3c2CCO)c(O)c2ccccc21 (stereo not drawn) = 81
